Would you mind telling me the reported IC50 of each entry?
# target or test system: Induced myeloid leukemia cell differentiation protein Mcl-1 (Homo sapiens)
# Sequence (Q07820 whole entry): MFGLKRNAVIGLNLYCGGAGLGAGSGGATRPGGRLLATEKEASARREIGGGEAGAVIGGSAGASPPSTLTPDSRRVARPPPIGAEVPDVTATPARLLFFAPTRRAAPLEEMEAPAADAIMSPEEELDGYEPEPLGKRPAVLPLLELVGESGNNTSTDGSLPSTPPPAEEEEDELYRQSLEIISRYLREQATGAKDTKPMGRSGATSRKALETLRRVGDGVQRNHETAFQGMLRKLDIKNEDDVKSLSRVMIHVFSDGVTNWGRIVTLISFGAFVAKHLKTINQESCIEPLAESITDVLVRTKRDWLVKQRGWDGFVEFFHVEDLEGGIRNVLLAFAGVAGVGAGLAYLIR
# Assay type: functional
Calls of active or inactive are those of the source.

QUERY: Return reported IC50. Input compound: `COCCCNC(=O)/C(C#N)=C/c1ccc(OCC(=O)O)c(OC)c1`
RESULT: 4.75 µM (active)

QUERY: Retrieve IC50 measured for `COc1ccc(N/C=C2\C(=O)CCc3c2oc2cc(Cl)c(O)c(Cl)c32)cc1` and print it.
RESULT: 4.32 µM (active)

QUERY: For `Cc1ccccc1C(=O)Nc1nc(-c2cccnc2)cs1` , write its IC50.
RESULT: > 54 µM (active)

QUERY: Supply reported IC50 belonging to this compound: `CCN(CC)C(=O)COC(=O)c1cc(-c2ccco2)nc2ccccc12`
RESULT: 3.26 µM (active)

QUERY: Note IC50 for the compound shown: `COc1ccc(/C=N/NC(=O)c2cc(O)c(O)c(O)c2)cc1Cn1cc([N+](=O)[O-])cn1`
RESULT: 4.31 µM (active)

QUERY: Read the entry `CCOC(=O)c1c(NC(=O)N/N=C/c2ccc(O)c(OC)c2)sc(C(C)=O)c1C` and write its reported IC50.
RESULT: 1.17 µM (active)

QUERY: Report IC50, nothing else, for this compound: `O=C(OCC(=O)N1CCN(C(=O)c2ccco2)CC1)c1cc(-c2ccco2)nc2ccccc12`
RESULT: 3.96 µM (active)
